Test system: SCLO1B1*15 mutant
Experiment: Drug uptake in human SCLO1B1*15 mutant expressed HEK293 cells assessed as net uptake
Format: ADME, cell-based
Conditions: HEK293 cells expressing human SCLO1B1*15 mutant
Quantity name: Km (µM)
Give the value, in units of µM, as a plain number.

Please look up its Km: Nc1ccc(O)c(C(=O)O)c1
32.4

---

Biological target: OATP1B3 (Homo sapiens, UniProt Q9NPD5)
Sequence (Q9NPD5 whole entry): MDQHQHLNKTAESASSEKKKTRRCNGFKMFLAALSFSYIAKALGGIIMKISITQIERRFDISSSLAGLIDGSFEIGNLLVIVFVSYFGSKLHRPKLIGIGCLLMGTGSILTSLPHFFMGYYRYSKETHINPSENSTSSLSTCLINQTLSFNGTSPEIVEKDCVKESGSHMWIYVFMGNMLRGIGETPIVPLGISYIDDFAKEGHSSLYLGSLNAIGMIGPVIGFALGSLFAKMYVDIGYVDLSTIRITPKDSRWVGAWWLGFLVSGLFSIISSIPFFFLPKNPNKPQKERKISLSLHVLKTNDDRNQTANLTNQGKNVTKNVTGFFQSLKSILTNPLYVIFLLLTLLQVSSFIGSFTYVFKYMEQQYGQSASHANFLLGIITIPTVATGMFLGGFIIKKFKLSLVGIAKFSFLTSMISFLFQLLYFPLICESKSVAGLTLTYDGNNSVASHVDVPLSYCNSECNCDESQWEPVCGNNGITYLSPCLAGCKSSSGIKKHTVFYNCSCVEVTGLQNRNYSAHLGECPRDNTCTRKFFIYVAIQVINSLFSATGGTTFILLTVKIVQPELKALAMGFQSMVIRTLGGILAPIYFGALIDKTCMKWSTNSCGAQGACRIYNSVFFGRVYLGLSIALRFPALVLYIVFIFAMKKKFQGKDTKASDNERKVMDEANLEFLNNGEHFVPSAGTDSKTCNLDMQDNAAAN
Test: Drug uptake in human OATP1B3 expressed HEK293 cells at 20 uM relative to control cells
Assay type: ADME, cell-based
Settings: HEK293 cells expressing human OATP1B3, read-out: FC
Quantity name: uptake ratio at 20 µM
Provide a numeric answer; units are not to be included.

// returns reported uptake ratio at 20 µM for input Nc1ccc(O)c(C(=O)O)c1 [MESALAMINE]
2.9

---

Tested on: SCLO1B1*1a mutant
Assay: Drug uptake in human SCLO1B1*1a mutant expressed HEK293 cells assessed as net uptake
Assay type: ADME, cell-based
Conditions: HEK293 cells expressing human SCLO1B1*1a mutant
Quantity name: Km (µM)
I only need the number, in µM, no unit after it.

Km of Nc1ccc(O)c(C(=O)O)c1 [MESALAMINE] on SCLO1B1*1a mutant?
55.1

---

Target: OATP1B1 (Homo sapiens)
Sequence (Q9Y6L6 whole entry): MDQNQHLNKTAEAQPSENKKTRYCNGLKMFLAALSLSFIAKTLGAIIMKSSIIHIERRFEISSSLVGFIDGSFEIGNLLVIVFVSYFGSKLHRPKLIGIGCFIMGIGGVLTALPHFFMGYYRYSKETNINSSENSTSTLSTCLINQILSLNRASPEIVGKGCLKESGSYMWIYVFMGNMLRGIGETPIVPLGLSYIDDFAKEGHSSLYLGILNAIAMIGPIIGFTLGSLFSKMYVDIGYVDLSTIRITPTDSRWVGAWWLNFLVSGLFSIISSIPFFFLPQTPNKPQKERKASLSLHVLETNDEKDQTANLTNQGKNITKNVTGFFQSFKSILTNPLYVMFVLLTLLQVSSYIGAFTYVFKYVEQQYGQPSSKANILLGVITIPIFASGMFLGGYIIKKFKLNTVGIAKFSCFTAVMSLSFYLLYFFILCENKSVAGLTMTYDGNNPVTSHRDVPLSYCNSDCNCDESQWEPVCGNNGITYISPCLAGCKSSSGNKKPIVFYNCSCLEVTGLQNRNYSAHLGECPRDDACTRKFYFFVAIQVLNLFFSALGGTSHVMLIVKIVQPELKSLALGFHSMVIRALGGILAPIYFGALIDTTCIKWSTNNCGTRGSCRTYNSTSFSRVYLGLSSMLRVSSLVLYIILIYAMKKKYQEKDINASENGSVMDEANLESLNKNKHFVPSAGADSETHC
Assay: Drug uptake in human OATP1B1 expressed HEK293 cells at 20 uM relative to control cells
Format: ADME, cell-based
Conditions: HEK293 cells expressing human OATP1B1, read-out: FC
Quantity name: uptake ratio at 20 µM
Form rule: numeric answer, no unit written next to it.

Could you share which uptake ratio at 20 µM value was measured for Nc1ccc(O)c(C(=O)O)c1 ?
2.7
